# experiment description: Tmax in rat at 3 mg/kg, iv
# Format: ADME, organism-based
# Set-up: dose 3 mg/kg, route intravenous
# condition info: in vivo
readout: Tmax
Answers without a unit are incomplete; give the number and then its unit.

Solved entries (count: 2):
compound | result
COc1cccc(-c2c(C)n(Cc3c(F)cccc3C(F)(F)F)c(=O)n(C[C@H](NCCCC(=O)[O-])c3ccccc3)c2=O)c1F.[Na+] [ELAGOLIX SODIUM] | 15 min
COc1cccc(-c2c(C)n(Cc3c(F)cccc3F)c(=O)n(C[C@H](NCCCC(=O)O)c3ccccc3)c2=O)c1F | 48 min

Could you now consider this next compound?
Answer with reported Tmax of COc1cccc(-c2c(C)n(Cc3c(F)cccc3C(F)(F)F)c(=O)n(C[C@@H](c3ccccc3)N(C)CCCC(=O)O)c2=O)c1F
15 min
